Assay: chemical genetic growth profiling, strain panel (AID 1159580);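 also: tested at 20 µM; growth read once vehicle control cultures reached saturation at 30 °C; 1 = growth at the plate median or of vehicle wells; lower values mean less growth of the strain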
Conditions: S. cerevisiae deletion strains, growth OD, locus YGR135W, strain pre9, hits give low values
The campaign covered roughly 5,500 compounds. About 2,000 (36%) were called active. Roughly 18% stayed inconclusive and do not appear here. Some of the results follow.
Measured attribute: normalized growth

| Compound | Observed result |
| --- | --- |
| COc1ccc2c(c1OC)C(=O)O[C@H]2[C@H]1c2cc3c(cc2CCN1C)OCO3 | 0.996 |
| CC(=O)OCC[N+](C)(C)C | 0.996 |
| CN(C)CC/C=C1\c2ccccc2Sc2ccc(Cl)cc21 | 0.827 |
| COc1cc(NC(C)CCCN)c2ncccc2c1 (stereo not drawn) | 0.991 |
| CNCCc1ccccn1 | 1.01 |
| COc1ccc2c(c1OC)C(=O)O[C@@H]2[C@H]1c2cc3c(cc2CCN1C)OCO3 | 1.01 |
| CCOC(=O)C(Cc1ccc(O)cc1)NC(C)=O (stereo not drawn) | 0.989 |
| CCCCCCCCCCCCCCCC[N+](C)(C)C | 0.0674 |
| ClC1=C(Cl)C2(Cl)C3C4C=CC(C4)C3C1(Cl)C2(Cl)Cl (stereo not drawn) | 0.982 |
| CC[C@H](/C=C/C(C)C1CCC2C3CCC4=CC(=O)CC[C@]4(C)C3CC[C@]12C)C(C)C (stereo partly drawn) | 1 |
| CC(=O)C1CCC2C3CC(=O)C4=CC(=O)CCC4(C)C3CCC12C (stereo not drawn) | 0.926 |
| CCN(CCO)CCCC(C)Nc1ccnc2cc(Cl)ccc12 (stereo not drawn) | 1.01 |
| C[N+](C)(C)CCCCCC[N+](C)(C)C | 0.95 |
| Cc1c(O)c(C(=O)CC(C)C)c2oc3c(C(=O)CC(C)C)c(O)c(C)c(O)c3c2c1O | 0.996 |
| NCC1CCC(C(=O)O)CC1 (stereo not drawn) | 0.96 |
| C[C@]12CCC(=O)C=C1CCC1C2CC[C@@]2(C)C1CC[C@@H]2O (stereo partly drawn) | 1.01 |
| OCC(O)C(O)C(O)CO (stereo not drawn) | 0.984 |
| CN(C)c1ccc(C(=C2C=CC(=[N+](C)C)C=C2)c2ccc(N(C)C)cc2)cc1 | 0.509 |

Reference source: PubChem BioAssay AID1159580
